assay: High‐throughput metabolic stability assay, pooled human liver microsomes; details: predicted hepatic metabolic (blood) clearance
Field: label. Allowed values: fulfilled (CLb hLMs < 9 mL/min/kg) or not fulfilled (CLb hLMs >= 9 mL/min/kg).

* CN(C)C(=O)c1cc2cnc(Nc3ccc(N4CCNCC4)cn3)nc2n1C1CCCC1 [ribociclib, reference compound] | fulfilled
* C[C@]12CC[C@@H]3c4ccc(O)cc4C[C@@H](CCCCCCCCC[S+]([O-])CCCC(F)(F)C(F)(F)F)[C@H]3[C@@H]1CC[C@@H]2O (stereo partly drawn) [fulvestrant, reference compound] | not fulfilled
* N=S1(=O)CCC(NC(=O)c2n[nH]cc2NC(=O)c2c(Cl)cccc2Cl)CC1 (stereo not drawn) [compound 15] | fulfilled
* C[C@]12CC[C@@H]3c4ccc(O)cc4C[C@@H](CCCCCCCCC[S@](=N)(=O)CCCC(F)(F)C(F)(F)F)[C@H]3[C@@H]1CC[C@@H]2O [compound 33] | not fulfilled
* CC(=O)c1c(C)c2cnc(Nc3ccc(N4CCNCC4)cn3)nc2n(C2CCCC2)c1=O [palbociclib, reference compound] | fulfilled
* CCCc1nc(C)c2c(=O)[nH]c(-c3cc(S(=O)(=O)N4CCS(=N)(=O)CC4)ccc3OCC)nn12 [compound 29] | fulfilled

* * *

system: MOLM‐13 cells; assay: In vitro proliferation assay, MOLM‐13 cells; format: cell-based; details: Homo sapiens, MOLM-13, read-out: IC50 MOLM‐13
Parameter IC50: see the listing below.
Assay Endpoint: IC50 (nM)

* CN(C)C(=O)c1cc2cnc(Nc3ccc(N4CCNCC4)cn3)nc2n1C1CCCC1 [ribociclib, reference compound] | 89
* CC(=O)c1c(C)c2cnc(Nc3ccc(N4CCS(=N)(=O)CC4)cn3)nc2n(C2CCCC2)c1=O | 128
* CN(C)C(=O)c1cc2cnc(Nc3ccc(N4CCS(=N)(=O)CC4)cn3)nc2n1C1CCCC1 | 1150
* CC(=O)c1c(C)c2cnc(Nc3ccc(N4CCNCC4)cn3)nc2n(C2CCCC2)c1=O [palbociclib, reference compound] | 41

* * *

tested on: rat hepatocytes; test: High‐throughput metabolic stability assay, freshly harvested rat hepatocytes; details: predicted hepatic metabolic (blood) clearance
Assay Endpoint: CLb rHep (mL/min/kg)

• N=S1(=O)CCC(NC(=O)c2n[nH]cc2NC(=O)c2c(Cl)cccc2Cl)CC1 (stereo not drawn) = 1
• CCCc1nc(C)c2c(=O)[nH]c(-c3cc(S(=O)(=O)N4CCS(=N)(=O)CC4)ccc3OCC)nn12 = 35
• CC(=O)c1c(C)c2cnc(Nc3ccc(N4CCS(=N)(=O)CC4)cn3)nc2n(C2CCCC2)c1=O = 18.3
• C[C@]12CC[C@@H]3c4ccc(O)cc4C[C@@H](CCCCCCCCC[S+]([O-])CCCC(F)(F)C(F)(F)F)[C@H]3[C@@H]1CC[C@@H]2O (stereo partly drawn) [fulvestrant, reference compound] = 58.3
• CN(C)C(=O)c1cc2cnc(Nc3ccc(N4CCNCC4)cn3)nc2n1C1CCCC1 [ribociclib, reference compound] = 38.3
• O=C(NC1CCNCC1)c1n[nH]cc1NC(=O)c1c(Cl)cccc1Cl [AT7519, reference compound] = 28.3

* * *

molecular target: UniProt:P50750
Sequence (P50750 whole entry): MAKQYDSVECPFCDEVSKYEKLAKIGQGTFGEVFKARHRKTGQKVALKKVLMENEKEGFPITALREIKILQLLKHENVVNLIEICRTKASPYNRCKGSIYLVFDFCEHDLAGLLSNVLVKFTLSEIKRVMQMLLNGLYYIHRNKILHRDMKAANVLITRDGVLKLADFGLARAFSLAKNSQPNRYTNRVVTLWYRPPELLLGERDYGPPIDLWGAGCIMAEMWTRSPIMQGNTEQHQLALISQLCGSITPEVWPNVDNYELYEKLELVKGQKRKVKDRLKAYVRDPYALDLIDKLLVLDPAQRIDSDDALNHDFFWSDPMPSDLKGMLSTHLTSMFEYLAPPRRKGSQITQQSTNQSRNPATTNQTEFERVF
Sequence (O60563 whole entry partner): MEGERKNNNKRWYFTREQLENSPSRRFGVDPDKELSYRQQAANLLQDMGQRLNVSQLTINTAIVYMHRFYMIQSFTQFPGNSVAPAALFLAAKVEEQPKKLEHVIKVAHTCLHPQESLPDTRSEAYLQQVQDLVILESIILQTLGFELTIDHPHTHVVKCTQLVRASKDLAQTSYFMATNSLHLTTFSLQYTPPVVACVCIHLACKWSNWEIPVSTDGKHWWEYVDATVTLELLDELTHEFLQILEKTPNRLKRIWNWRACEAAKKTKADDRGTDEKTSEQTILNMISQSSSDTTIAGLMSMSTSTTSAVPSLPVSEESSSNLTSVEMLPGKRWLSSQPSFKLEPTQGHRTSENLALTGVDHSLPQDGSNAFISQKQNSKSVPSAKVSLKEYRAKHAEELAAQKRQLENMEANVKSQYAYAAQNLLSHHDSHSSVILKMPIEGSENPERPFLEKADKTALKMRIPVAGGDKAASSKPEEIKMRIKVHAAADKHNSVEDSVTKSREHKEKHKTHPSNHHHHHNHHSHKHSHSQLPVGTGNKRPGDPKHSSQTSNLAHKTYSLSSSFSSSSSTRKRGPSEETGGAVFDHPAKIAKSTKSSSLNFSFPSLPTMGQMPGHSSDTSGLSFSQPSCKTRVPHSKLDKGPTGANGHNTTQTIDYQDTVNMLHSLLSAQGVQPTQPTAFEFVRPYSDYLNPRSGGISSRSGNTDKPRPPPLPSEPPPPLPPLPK
pIC50: −log10 of the molar value.
Assay Endpoint: pIC50

• N=S1(=O)CCC(NC(=O)c2n[nH]cc2NC(=O)c2c(Cl)cccc2Cl)CC1 (stereo not shown) = 6.91

* * *

molecular target: CDK2 (Homo sapiens, UniProt P24941)
Assay Endpoint: IC50 (nM)

- N=S1(=O)CCC(NC(=O)c2n[nH]cc2NC(=O)c2c(Cl)cccc2Cl)CC1 (stereo not shown) [compound 15]: 522

* * *

Parameter P app A→B: see the listing below.
test system: Caco2; experiment: Bidirectional Caco2 permeability assay, 24‐well format; conditions: Caco2, apical to basolateral
Assay Endpoint: P app A→B (×10⁻⁶ cm/s)

• O=C(NC1CCNCC1)c1n[nH]cc1NC(=O)c1c(Cl)cccc1Cl [AT7519, reference compound] = 0.1
• N=S1(=O)CCC(NC(=O)c2n[nH]cc2NC(=O)c2c(Cl)cccc2Cl)CC1 (stereo not shown) [compound 15] = 0.14
• CN(C)C(=O)c1cc2cnc(Nc3ccc(N4CCNCC4)cn3)nc2n1C1CCCC1 [ribociclib, reference compound] = 13.5
• CN(C)C(=O)c1cc2cnc(Nc3ccc(N4CCS(=N)(=O)CC4)cn3)nc2n1C1CCCC1 [compound 26] = 2.2

* * *

test: Bidirectional Caco2 permeability assay, 24‐well format; conditions: human, Caco-2
Parameter efflux ratio at 90 min: see the listing below.
Assay Endpoint: efflux ratio at 90 min

- N=S1(=O)CCC(NC(=O)c2n[nH]cc2NC(=O)c2c(Cl)cccc2Cl)CC1 (stereo not drawn): 37
- CC(=O)c1c(C)c2cnc(Nc3ccc(N4CCS(=N)(=O)CC4)cn3)nc2n(C2CCCC2)c1=O: 9.1
- CN(C)C(=O)c1cc2cnc(Nc3ccc(N4CCS(=N)(=O)CC4)cn3)nc2n1C1CCCC1: 11

* * *

test system: rat hepatocytes; assay: High‐throughput metabolic stability assay, freshly harvested rat hepatocytes; conditions: predicted hepatic metabolic (blood) clearance
Parameter CLb rHep: see the listing below.
Assay Endpoint: CLb rHep (mL/min/kg)

• CN(C)C(=O)c1cc2cnc(Nc3ccc(N4CCS(=N)(=O)CC4)cn3)nc2n1C1CCCC1 [compound 26] = 18.3
• CCCc1nc(C)c2c(=O)[nH]c(-c3cc(S(=O)(=O)N4CCN(CC)CC4)ccc3OCC)nn12 [vardenafil, reference compound] = 50
• C[C@]12CC[C@@H]3c4ccc(O)cc4C[C@@H](CCCCCCCCC[S@](=N)(=O)CCCC(F)(F)C(F)(F)F)[C@H]3[C@@H]1CC[C@@H]2O [compound 33] = 58.3
• CC(=O)c1c(C)c2cnc(Nc3ccc(N4CCNCC4)cn3)nc2n(C2CCCC2)c1=O [palbociclib, reference compound] = 21.7

* * *

Parameter chromatographic logD: see the listing below.
test: logD by reversed‐phase HPLC; settings: pH 7.5
Assay Endpoint: chromatographic logD

* CCCc1nc(C)c2c(=O)[nH]c(-c3cc(S(=O)(=O)N4CCS(=N)(=O)CC4)ccc3OCC)nn12 [compound 29] | 2
* CCCc1nc(C)c2c(=O)[nH]c(-c3cc(S(=O)(=O)N4CCN(CC)CC4)ccc3OCC)nn12 [vardenafil, reference compound] | 2.6
* CC(=O)c1c(C)c2cnc(Nc3ccc(N4CCNCC4)cn3)nc2n(C2CCCC2)c1=O [palbociclib, reference compound] | 1.9

* * *

target: CDK4/CycD3 (Homo sapiens, UniProt P11802); assay: Biochemical assay at ProQinase, CDK4/CycD3
Sequence (P11802 whole entry): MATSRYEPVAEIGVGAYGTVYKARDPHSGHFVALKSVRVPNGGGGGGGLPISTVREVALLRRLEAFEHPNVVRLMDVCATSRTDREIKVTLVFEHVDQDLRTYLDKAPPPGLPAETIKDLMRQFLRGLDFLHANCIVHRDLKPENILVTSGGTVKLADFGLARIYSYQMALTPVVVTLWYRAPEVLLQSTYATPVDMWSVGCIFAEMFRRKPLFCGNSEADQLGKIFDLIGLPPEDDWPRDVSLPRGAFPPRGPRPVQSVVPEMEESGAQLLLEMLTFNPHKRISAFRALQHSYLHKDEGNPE
Sequence (P30281 whole entry partner): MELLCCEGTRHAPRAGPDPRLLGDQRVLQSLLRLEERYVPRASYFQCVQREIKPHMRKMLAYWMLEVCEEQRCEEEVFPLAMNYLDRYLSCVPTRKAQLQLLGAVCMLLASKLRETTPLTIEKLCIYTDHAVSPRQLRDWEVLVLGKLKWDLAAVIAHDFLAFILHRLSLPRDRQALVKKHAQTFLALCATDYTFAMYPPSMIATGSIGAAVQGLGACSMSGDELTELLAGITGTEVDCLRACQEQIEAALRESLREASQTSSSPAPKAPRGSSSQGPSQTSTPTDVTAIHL
Assay Endpoint: IC50

• CC(=O)c1c(C)c2cnc(Nc3ccc(N4CCS(=N)(=O)CC4)cn3)nc2n(C2CCCC2)c1=O = 101 nM
• CN(C)C(=O)c1cc2cnc(Nc3ccc(N4CCS(=N)(=O)CC4)cn3)nc2n1C1CCCC1 = 216 nM
